# credit: patent US20240238424A1

system: HeLa KRas G12C cells; assay: Cellular growth inhibition assay (CTG), HeLa KRas G12C cells; type: cell-based; details: Homo sapiens, CellTiter-Glo 2.0, day-5
Would you kindly list GI50 for each of these molecules?

A selection of reference data follows.
molecule	value
C=C(F)C(=O)N1CCN(c2nc(OC[C@@H]3CCCN3CCOCCOCCOCCOCCOCCOCCCCCCCCc3cc(Cl)cc(NC(=O)NCc4ccc5c(c4)CN(C4CCC(=O)NC4=O)C5=O)c3)nc3c2CCN(c2cccc4cccc(Cl)c24)C3)C[C@@H]1CC#N (stereo partly shown)	< 1000 nM
C=C(F)C(=O)N1CCN(c2nc(OC[C@@H]3CCCN3CCCOCCOCCOCCOCCOCCOCCOCCOCCOCCCCCc3ccc(Cl)cc3NC(=O)NCc3ccc4c(c3)CN(C3CCC(=O)NC3=O)C4=O)nc3c2CCN(c2cccc4cccc(Cl)c24)C3)C[C@@H]1CC#N (stereo partly shown)	3000 to 10000 nM
C=C(F)C(=O)N1CCN(c2nc(OC[C@@H]3CCCN3CCOCCOCCCCCCCCCCCCCCc3cc(Cl)cc(NC(=O)NCc4ccc5c(c4)CN(C4CCC(=O)NC4=O)C5=O)c3)nc3c2CCN(c2cccc4cccc(Cl)c24)C3)C[C@@H]1CC#N (stereo partly shown)	3000 to 10000 nM

Would you kindly look at the next entry?
Task: Using the record for CN(C/C=C/C(=O)N1CCN(c2nc(OC[C@@H]3CCCN3C)nc3c2CCN(c2cccc4cccc(Cl)c24)C3)C[C@@H]1CC#N)CCOCCOCCOCCOCCOCCCCCc1cc(Cl)cc(NC(=O)NCc2ccc3c(c2)CN(C2CCC(=O)N(C)C2=O)C3=O)c1 (stereo partly shown) , state its measured GI50.
Result: 1000 to 3000 nM

* * *

Record form. Attribute: DC50. Fill in for each entry.
biological target: GSPT1 (Homo sapiens, UniProt P15170+Q96SW2); construct: host or cells: HEK293 LgBiT cell line; assay: GSPT1 HiBit degradation assay; type: cell-based; conditions: Table 3; HEK293 LgBiT cells expressing GSPT1_HiBiT, luminescence after 6 hours
Sequence (P15170 whole entry): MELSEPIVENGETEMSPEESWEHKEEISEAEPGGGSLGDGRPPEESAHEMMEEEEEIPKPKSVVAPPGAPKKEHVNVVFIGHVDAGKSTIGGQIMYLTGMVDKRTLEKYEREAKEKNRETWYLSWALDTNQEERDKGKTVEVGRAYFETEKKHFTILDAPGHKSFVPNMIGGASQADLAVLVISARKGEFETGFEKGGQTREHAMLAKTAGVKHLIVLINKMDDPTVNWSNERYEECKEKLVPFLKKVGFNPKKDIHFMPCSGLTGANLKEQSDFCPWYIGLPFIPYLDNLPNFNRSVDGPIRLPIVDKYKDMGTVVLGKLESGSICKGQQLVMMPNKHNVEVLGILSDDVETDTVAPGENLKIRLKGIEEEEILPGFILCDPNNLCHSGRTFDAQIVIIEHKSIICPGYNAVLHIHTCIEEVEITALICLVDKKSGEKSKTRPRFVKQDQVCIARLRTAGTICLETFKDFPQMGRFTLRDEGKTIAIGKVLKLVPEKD
Sequence (Q96SW2 whole entry): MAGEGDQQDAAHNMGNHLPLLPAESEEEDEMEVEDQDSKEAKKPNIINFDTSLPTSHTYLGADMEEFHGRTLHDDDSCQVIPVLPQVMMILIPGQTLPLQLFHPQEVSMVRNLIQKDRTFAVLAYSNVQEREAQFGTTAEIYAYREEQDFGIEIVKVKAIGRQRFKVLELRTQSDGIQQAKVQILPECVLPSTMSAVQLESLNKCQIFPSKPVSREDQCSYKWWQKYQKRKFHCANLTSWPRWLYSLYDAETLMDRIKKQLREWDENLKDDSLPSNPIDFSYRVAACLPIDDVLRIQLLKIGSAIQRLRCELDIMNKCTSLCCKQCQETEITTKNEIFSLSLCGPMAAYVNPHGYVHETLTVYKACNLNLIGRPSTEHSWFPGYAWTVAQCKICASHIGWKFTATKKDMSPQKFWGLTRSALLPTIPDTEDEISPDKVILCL
Sequence (Q16531 whole entry partner): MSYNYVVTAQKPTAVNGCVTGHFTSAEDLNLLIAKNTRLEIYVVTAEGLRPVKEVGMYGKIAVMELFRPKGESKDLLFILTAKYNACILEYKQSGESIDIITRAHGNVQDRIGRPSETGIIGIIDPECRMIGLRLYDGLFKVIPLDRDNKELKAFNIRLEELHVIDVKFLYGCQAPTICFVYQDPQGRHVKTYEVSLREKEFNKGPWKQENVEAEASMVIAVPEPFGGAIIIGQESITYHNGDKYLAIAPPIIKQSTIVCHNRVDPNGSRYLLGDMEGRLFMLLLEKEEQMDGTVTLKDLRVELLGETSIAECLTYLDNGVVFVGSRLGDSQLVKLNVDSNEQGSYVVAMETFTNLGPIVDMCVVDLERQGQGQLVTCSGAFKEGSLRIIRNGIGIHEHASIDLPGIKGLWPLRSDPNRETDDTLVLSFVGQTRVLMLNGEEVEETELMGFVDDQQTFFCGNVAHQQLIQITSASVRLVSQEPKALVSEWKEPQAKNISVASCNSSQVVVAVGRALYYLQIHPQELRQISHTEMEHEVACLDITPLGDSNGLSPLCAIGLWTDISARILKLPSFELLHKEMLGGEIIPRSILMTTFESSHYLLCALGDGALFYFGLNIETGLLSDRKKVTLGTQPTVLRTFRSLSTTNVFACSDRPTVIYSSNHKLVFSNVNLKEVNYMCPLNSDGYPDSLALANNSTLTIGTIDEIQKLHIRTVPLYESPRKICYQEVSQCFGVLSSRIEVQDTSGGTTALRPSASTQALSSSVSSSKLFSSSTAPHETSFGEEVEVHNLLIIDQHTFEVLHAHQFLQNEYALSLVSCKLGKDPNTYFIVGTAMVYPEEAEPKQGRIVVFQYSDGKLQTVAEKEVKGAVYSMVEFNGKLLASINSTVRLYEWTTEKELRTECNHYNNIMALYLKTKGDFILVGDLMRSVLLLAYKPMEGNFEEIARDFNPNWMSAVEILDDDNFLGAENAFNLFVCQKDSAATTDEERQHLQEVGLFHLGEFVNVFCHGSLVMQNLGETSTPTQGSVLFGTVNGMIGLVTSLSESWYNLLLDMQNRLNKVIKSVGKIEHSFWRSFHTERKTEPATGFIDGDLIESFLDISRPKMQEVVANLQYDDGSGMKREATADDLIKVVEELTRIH

These solved cases illustrate the format of a correct answer.
compound	target.or.system	value
Cc1c(CC(=O)N(C)C)ccc(NC(=O)c2nn([C@H]3CCCN(C(=O)/C=C/CN(C)CCOCCOCCOCCOCCOCCOCCOCCOCCOCCOCCCCCCCCc4cc(Cl)cc(NC(=O)NCc5ccc6c(c5)CN(C5CCC(=O)NC5=O)C6=O)c4)C3)c3ncnc(N)c23)c1C (stereo partly shown) [Compound I-66]	GSPT1 (Homo sapiens, UniProt P15170+Q96SW2)	250 to 5000 nM
C=C(F)C(=O)N1CCN(c2nc(OC[C@@H]3CCCN3CCOCCOCCOCCOCCOCCOCCOCCOCCOCCOCCCCCCCCCCCCCCc3cc(Cl)cc(NC(=O)NCc4ccc5c(c4)CN(C4CCC(=O)NC4=O)C5=O)c3)nc3c2CCN(c2cccc4cccc(Cl)c24)C3)C[C@@H]1CC#N (stereo partly shown) [Compound I-52]	GSPT1 (Homo sapiens, UniProt P15170+Q96SW2)	250 to 5000 nM
CC1(C)[C@H](NC(=O)c2ccc(OCCOCCOCCOCCOCCOCCOCCOc3cc(Cl)cc(NC(=O)NCc4ccc5c(c4)CN(C4CCC(=O)NC4=O)C5=O)c3)cc2)C(C)(C)[C@H]1Oc1ccc(C#N)c(Cl)c1 (stereo partly shown) [Compound I-19]	GSPT1 (Homo sapiens, UniProt P15170+Q96SW2)	250 to 5000 nM

Task: Answer with the recorded DC50 of CN(C/C=C/C(=O)N1CCC[C@@H](n2nc(-c3ccc(Oc4ccccc4)cc3)c3c(N)ncnc32)C1)CCOCCOCCOCCOCCCCCCCCc1cc(Cl)cc(NC(=O)NCc2ccc3c(c2)CN(C2CCC(=O)NC2=O)C3=O)c1 (stereo partly shown) [Compound I-67] only.
Result: < 250 nM
